tested-system: Ten-M2 endogenously expressed on human cancer cell lines (SNB-19 and others) (human, UniProt Q9NT68 1-2774)
protocol-summary: cell-based or functional assay
measurement-kind: % Internalization (SNB-19 cells) (%)
Please give a number only; it is taken to be in %.

Would you kindly share the measured % Internalization (SNB-19 cells) for Ten-M2-188 (antibody, IgG2, V domains shown, Fully human mAb from IgG2 kappa XenoMouse (B cell clone)) VH: QVQLVQSGAEVKKPGASVKVSCKASGYTFTGYYMHWVRQAPGQGLEWMGWINPNSGGTNSAQRFQGRVTMTRDTSIYTAYMELSRLRSDDTAVYYCAREYRSGRYYNGMDVWGQGTTVTVSS VL: DIQLTQSPSSLSASVGDRVTITCRASQDISNYLAWYQQKPGKVPKLLIYAASTLQSGVPSRFSGSGSGTDFTLTISSLQPEDIATYSCQKYSSTPFTFGPGTKVDIK ? 48

Same for Ten-M2-140 (antibody, IgG2, V domains shown, Fully human mAb from IgG2 kappa XenoMouse (B cell clone); also called Mab140; anti-Ten-M2 monoclonal antibody clone 140) VH: QEQLVESGGGVVQPGRSLRLSCAASGFTFSSHGMHWVRQAPGKGLEWVAIIWYDGSKKFYADSVKGRFTISRDNSKNTLSLQMNSLRAEDTAVYYCARGPWNYYYYGMDVWGQGTTVTVSS VL: EIVLTQSPGTLSLSPGERATFSCRASQSVISNYLAWYQQKPGQAPRLLIYNTSSRATGIPGRFSGGGSGTDFTLTITRLEPEDFAVYYCQQYGSSPITFGQGTRLEIK 44

// same read-out, input: Ten-M2-179 (antibody, IgG2, V domains shown, Fully human mAb from IgG2 kappa XenoMouse (B cell clone); also called Mab179) VH: QVQLVESGGGVVQPGRSLRLSCAASGFTFSSYGMHWVRQAPGKGLEWVAFIWYDGSNKYYADSVKGRFTISRDNSKNTLYLQMNSLRAEDTAVYYCARDGSSGWYFFDYWGQGTLVTVSS VL: DIVMTQTPLSLSVTPGQPASISCKSSQSLLHSDRQTYLFWYLQKPGQPPQLLIYEVSNRFSGVPDRFSGSGSGTDFTLKISRVEAEDVGVYYCMQSIQLPPTFGPGTKVDIK 29

Item: Ten-M2-120 (antibody, V domains shown, also called Mab120) VH: QVQLVESGGGVVQPGRSLRLSCAASGFTFSSYGMHWVRQAPGKGLEWVAVLWYDGSKKFYADSVKGRFTISRDNSKNTLYLQMNSLRAEDTALYYCARGPWNYYYYGMDVWGQGTTVTVSS VL: EIVLTQSPGTLSLSPGERATLSCRASQSVISSYLAWYQQKPGQAPRLLIYNASNRATGIPDRFSGSGSGTDFTLTISRLEPEDFAVYYCQQYGSSPITFGQGTRLEIK 40
